- test-target: T1, VP4 of rotavirus strain Wa (G1P[8]) (human rotavirus, UniProt P11193 1-775)
- T1 construct: whole, on cells
- T1 sequence (P11193 whole entry): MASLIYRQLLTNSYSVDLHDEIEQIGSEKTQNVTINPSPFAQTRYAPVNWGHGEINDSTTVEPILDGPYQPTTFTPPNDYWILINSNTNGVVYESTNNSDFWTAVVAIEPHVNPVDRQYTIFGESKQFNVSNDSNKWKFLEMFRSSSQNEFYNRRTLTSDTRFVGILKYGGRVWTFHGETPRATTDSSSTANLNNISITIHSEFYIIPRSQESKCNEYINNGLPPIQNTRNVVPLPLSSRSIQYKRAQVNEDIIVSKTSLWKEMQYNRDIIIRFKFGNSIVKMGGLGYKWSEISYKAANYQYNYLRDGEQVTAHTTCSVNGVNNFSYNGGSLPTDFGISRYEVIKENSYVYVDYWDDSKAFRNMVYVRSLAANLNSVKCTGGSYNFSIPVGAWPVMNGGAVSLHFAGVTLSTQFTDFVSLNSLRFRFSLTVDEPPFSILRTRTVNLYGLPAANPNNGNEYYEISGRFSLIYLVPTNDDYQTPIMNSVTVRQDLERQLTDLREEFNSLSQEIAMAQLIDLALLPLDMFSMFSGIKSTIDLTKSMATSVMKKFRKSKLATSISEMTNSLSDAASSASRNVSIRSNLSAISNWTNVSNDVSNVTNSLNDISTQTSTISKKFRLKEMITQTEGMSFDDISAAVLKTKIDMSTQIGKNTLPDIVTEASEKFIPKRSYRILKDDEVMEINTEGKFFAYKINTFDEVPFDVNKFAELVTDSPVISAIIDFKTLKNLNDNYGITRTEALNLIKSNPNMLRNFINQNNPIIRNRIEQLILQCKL
- experimental-details: immunostaining, RV-infected MA104 cells
readout-name: Endpoint immunostaining concentration (ng/mL)
Respond with the bare value in ng/mL.

Memo: mAb #49 (antibody, V domains shown, also called mAb ID: 49; Mab No. 49) VH: DVQLVESGGGLVQPGGSVRLSCSASRFTFSNYAMYWVRQAPGKGLEYVSSISSDGGSTYYAESVKGRFTISRDNSKNTLYLQMRSLRAEDAAVYYCVTDVLRLPYSTGWSPGDFIYWGQGTLVTVSS VL: DIQMTQSPSILYASVGDRVTITCRASQSVSSWLAWYQQKPGKVPKLLIYQASTLENGVPSRFSGSGSGTEFILTISSLQPDDFATYYCQHYNVLWTFGQGTKVEIK , reported Endpoint immunostaining concentration: 5

Source listed as patent US20180155411A1.
